Biological target: Group 3 secretory phospholipase A2 (Homo sapiens)
Assay: human group III sPLA2 inhibitors, primary screen, biochemical, QFRET, BODIPY PC-A2 liposome substrate (AID 743126)
Settings: QFRET BODIPY PC-A2 liposome hydrolysis, fluorescence; at 12.2 µM
The whole screen tested about 370,000 compounds, of which about 2,100 (0.57%) were called active.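 How the source made its calls: active means inhibition above mean plus 3 SD of compounds lying within the high and low control bounds (cut at about 19% in these data); inactive means the rest.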 Only a selection was taken, and actives are over-represented in it overall.
Possible outcomes: active, inactive

{"compound": "Cc1ccc(Nc2ccccc2N)cc1", "tested target": "Group 3 secretory phospholipase A2 (Homo sapiens)", "classification": "inactive"}
{"compound": "CCCC[C@H]1C2CC(OC(=O)NCc3ccccc3)C(C2)[C@H]2CCCCN21 (stereo not given in full)", "tested target": "Group 3 secretory phospholipase A2 (Homo sapiens)", "classification": "inactive"}
{"compound": "Nc1ccc(Nc2ccccc2)cc1", "tested target": "Group 3 secretory phospholipase A2 (Homo sapiens)", "classification": "active"}
{"compound": "COC(=O)[C@]1(C#N)CC(=O)N(CC2CCCCC2)[C@@H]1c1ccccc1", "tested target": "Group 3 secretory phospholipase A2 (Homo sapiens)", "classification": "inactive"}
{"compound": "CC(=O)/C(=N\\Nc1ccc(Cl)cc1Cl)Sc1cccc2cccnc12", "tested target": "Group 3 secretory phospholipase A2 (Homo sapiens)", "classification": "active"}
{"compound": "Cc1ccc(NC(=O)Nc2cc(C)nn2-c2ccccc2)cc1", "tested target": "Group 3 secretory phospholipase A2 (Homo sapiens)", "classification": "inactive"}
{"compound": "C=CCN1C(=O)[C@@H](CC(=O)NCCCOCCCC)[C@]2(C(=O)OCC)CCCCC/C=C/12", "tested target": "Group 3 secretory phospholipase A2 (Homo sapiens)", "classification": "inactive"}
{"compound": "CCC(NC(=O)C1C2C=CC3(CN(Cc4ccccc4)C(=O)C13)O2)c1ccccc1 (stereo not given)", "tested target": "Group 3 secretory phospholipase A2 (Homo sapiens)", "classification": "inactive"}
{"compound": "Cc1ccc(NC(=S)NNC(=O)CSc2nnc(SCc3ccccc3Cl)s2)cc1", "tested target": "Group 3 secretory phospholipase A2 (Homo sapiens)", "classification": "active"}
{"compound": "COc1ccccc1OCCn1c(SCC(N)=O)nc2ccccc21", "tested target": "Group 3 secretory phospholipase A2 (Homo sapiens)", "classification": "active"}
{"compound": "CC(C)(C)c1cc2cccnc2n1Cc1cccc(F)c1", "tested target": "Group 3 secretory phospholipase A2 (Homo sapiens)", "classification": "active"}
{"compound": "C[C@@H](NC(=O)c1ccccc1OCC(=O)Nc1ccc(I)cc1)C(=O)N(C)Cc1ccccc1", "tested target": "Group 3 secretory phospholipase A2 (Homo sapiens)", "classification": "inactive"}
{"compound": "CCOC(=O)N1CCN(C(=O)C[C@H]2C[C@@]3(C(=O)OC)C(=C[C@H](C(C)(C)C)O[C@@H]3C)N(Cc3ccc(Cl)cc3Cl)C2=O)CC1", "tested target": "Group 3 secretory phospholipase A2 (Homo sapiens)", "classification": "inactive"}
{"compound": "COc1ccc(-n2c(SCC(=O)Nc3ccc4cn[nH]c4c3)nnc2-c2cccnc2)cc1", "tested target": "Group 3 secretory phospholipase A2 (Homo sapiens)", "classification": "inactive"}
{"compound": "Cc1ccc(-n2c(SCC(=O)Nc3cccc4ccccc34)nnc2-c2ccccn2)cc1", "tested target": "Group 3 secretory phospholipase A2 (Homo sapiens)", "classification": "inactive"}
{"compound": "O=C(CSc1nnc(COc2ccccc2)n1Cc1ccco1)c1ccc2ccccc2c1", "tested target": "Group 3 secretory phospholipase A2 (Homo sapiens)", "classification": "inactive"}
{"compound": "Cc1ccc(-n2c(SCC(=O)Nc3ccc(S(=O)(=O)Nc4nccs4)cc3)nnc2-c2cccnc2)cc1", "tested target": "Group 3 secretory phospholipase A2 (Homo sapiens)", "classification": "inactive"}
{"compound": "CC(Oc1ccc(Cl)cc1)C(=O)Nc1ncccn1 (stereo not given)", "tested target": "Group 3 secretory phospholipase A2 (Homo sapiens)", "classification": "inactive"}
{"compound": "O=c1cnnc(Nc2ccccc2)[nH]1", "tested target": "Group 3 secretory phospholipase A2 (Homo sapiens)", "classification": "inactive"}
{"compound": "COc1ccc(Cl)cc1C(=O)NNC(=O)c1nc2nc(C)cc(C)n2n1", "tested target": "Group 3 secretory phospholipase A2 (Homo sapiens)", "classification": "inactive"}
{"compound": "COc1ccc(Cl)cc1C(=O)NNC(=S)NC1CCCC1", "tested target": "Group 3 secretory phospholipase A2 (Homo sapiens)", "classification": "active"}
{"compound": "COc1ccccc1OCc1nnc(SCC(N)=O)n1-c1ccccc1", "tested target": "Group 3 secretory phospholipase A2 (Homo sapiens)", "classification": "inactive"}
{"compound": "Cc1cccc(C)c1NC(=O)CN1C(=O)C(C)Oc2ccccc21 (stereo not given)", "tested target": "Group 3 secretory phospholipase A2 (Homo sapiens)", "classification": "active"}
{"compound": "O=C(COc1ccc(S(=O)(=O)NCCc2ccccc2)cc1)N1CCCC1", "tested target": "Group 3 secretory phospholipase A2 (Homo sapiens)", "classification": "inactive"}
{"compound": "Cc1nn(C)c(C(=O)NNC(=S)NC2CCCCC2)c1Cl", "tested target": "Group 3 secretory phospholipase A2 (Homo sapiens)", "classification": "inactive"}
